Measured values drawn from the MegaScale stability set (Tsuboyama et al. 2023) for this set.

B1: 6YSE (parent)
chain: HERALMVNRLQKLTRMLRVHPDPKWKQEQQELIKRLK

Variants of: B1
Experiment: folding stability dG (cDNA display proteolysis); higher = more stable
Details: PBS, room temperature
assay.metric: folding stability dG

>>> readout_value("H1P")
"1.31 kcal/mol"
>>> readout_value("K24H")
"0.889 kcal/mol"
>>> readout_value("V19S")
"1.23 kcal/mol"
>>> readout_value("Q27F")
"1.14 kcal/mol"
>>> readout_value("P23S")
"0.806 kcal/mol"
>>> readout_value("N8Y")
"1.38 kcal/mol"
>>> readout_value("H20L")
"0.97 kcal/mol"
>>> readout_value("V19L")
"1.48 kcal/mol"
>>> readout_value("Q11D")
"0.958 kcal/mol"
>>> readout_value("R3I")
"1.63 kcal/mol"
>>> readout_value("A4W")
"1.7 kcal/mol"
>>> readout_value("Q11E")
"1.08 kcal/mol"
>>> readout_value("R9S")
"-0.602 kcal/mol"
>>> readout_value("Q30V")
"1.1 kcal/mol"
>>> readout_value("K34Y")
"1.02 kcal/mol"
>>> readout_value("L5T")
"1.27 kcal/mol"
>>> readout_value("K24F")
"0.828 kcal/mol"
>>> readout_value("K24T")
"1.3 kcal/mol"
>>> readout_value("H1N")
"1.45 kcal/mol"
>>> readout_value("P21D")
"1.37 kcal/mol"
>>> readout_value("L36R")
"-0.888 kcal/mol"
>>> readout_value("R35H")
"0.82 kcal/mol"
>>> readout_value("V19R")
"1.55 kcal/mol"
>>> readout_value("E31S")
"0.996 kcal/mol"
>>> readout_value("T14Q")
"0.979 kcal/mol"
>>> readout_value("K34Q")
"1.25 kcal/mol"
>>> readout_value("R15M")
"1.33 kcal/mol"
>>> readout_value("L5S")
"1.48 kcal/mol"
>>> readout_value("E31Q")
"0.963 kcal/mol"
>>> readout_value("R3F")
"1.66 kcal/mol"
>>> readout_value("R3K")
"1.03 kcal/mol"
>>> readout_value("W25K")
"0.636 kcal/mol"
>>> readout_value("E2K")
"1.15 kcal/mol"
>>> readout_value("P21T")
"0.908 kcal/mol"
>>> readout_value("K26T")
"0.715 kcal/mol"
>>> readout_value("K24A")
"1.24 kcal/mol"
>>> readout_value("R9G")
"-0.612 kcal/mol"
>>> readout_value("Q29F")
"1.53 kcal/mol"
>>> readout_value("I33E")
"-0.101 kcal/mol"
>>> readout_value("V7L")
"2.05 kcal/mol"
>>> readout_value("H20S")
"1.26 kcal/mol"
>>> readout_value("N8M")
"1.67 kcal/mol"
>>> readout_value("K26M")
"1.29 kcal/mol"
>>> readout_value("R15T")
"0.631 kcal/mol"
>>> readout_value("H1W")
"1.75 kcal/mol"
>>> readout_value("H20D")
"1.3 kcal/mol"
>>> readout_value("M6A")
"0.574 kcal/mol"
>>> readout_value("L17N")
"0.006 kcal/mol"
>>> readout_value("N8D")
"1.45 kcal/mol"
>>> readout_value("V7W")
"1.96 kcal/mol"
>>> readout_value("M16R")
"0.261 kcal/mol"
>>> readout_value("Q27Y")
"0.821 kcal/mol"
>>> readout_value("E2L")
"1.59 kcal/mol"
>>> readout_value("Q30F")
"0.851 kcal/mol"
>>> readout_value("V7P")
"-0.01 kcal/mol"
>>> readout_value("V19I")
"1.51 kcal/mol"
>>> readout_value("M6D")
"0.383 kcal/mol"
>>> readout_value("H20F")
"1.39 kcal/mol"
>>> readout_value("P23W")
"0.75 kcal/mol"
>>> readout_value("R35F")
"1.18 kcal/mol"
>>> readout_value("Q11K")
"2.12 kcal/mol"
>>> readout_value("E31L")
"1.08 kcal/mol"
>>> readout_value("W25F")
"1.25 kcal/mol"
